B1: ANKRD40 (parent)
chain: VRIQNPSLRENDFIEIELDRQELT

Variants of: B1
experimental protocol: protein stability index of a GFP-peptide fusion (GPS, HEK-293T) (PSI 1-6); higher = more stable;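 also: lentivirally expressed fusions sorted by FACS into six bins by GFP to DsRed ratio, PSI derived from sequencing read proportions per bin multiplied by bin number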
condition parameters: c terminus: a fixed tail appended
parameter measured: protein stability index
API note: the answer field is a bare number with no unit suffix.

# count of solved cases: 8
L18E	5.04
E10M	1.74
V1A	3.91
I14D	5.22
D19R	2.41
L8W	1.98
L23N	3.69
N11R	2.63

Briefly, protein stability index measured for E22L : 2.61

protein stability index for R9K is 2.62

Just so you know, measured protein stability index for E22N came out at 2.34

get_value(item= L18M , readout=protein stability index) returns 3.3

get_value(item= V1H , readout=protein stability index) returns 4.04

Data origin: the supplement of paper PMC10567573
